Sourced from PubChem BioAssay (NCI)

Property: TGI; scope: individual compounds
System: MDA-MB-468 breast
Experiment: NCI tumour cell line growth inhibition, 48 h
RESULT TYPE: TGI (µM)

In [3]: df
Out[3]:
                                    compound      target_system  relation_qualifier  recorded_number
 0  O=C(/C=C/c1ccc(B(O)O)cc1)/C=C/c1ccc(B(O)O)cc1  MDA-MB-468 breast                   =             4.34
 1                  Cc1ccccc1NC(=S)Nc1ccccn1  MDA-MB-468 breast                   =             81.2
 2           Cc1cc(C)nc(NC(N)=NCCc2ccccc2)n1  MDA-MB-468 breast                   =             8.95
 3  Cc1[nH]ncc1-c1cc2nc(C3CC4CCN3CC4)[nH]c(=O)c2s1 (stereo not drawn)  MDA-MB-468 breast                   =             32.2
 4  Cc1c2cc[nH]c(=O)c2c(C)c2c1[nH]c1cc(OCCN3CCN(C)CC3)ccc12  MDA-MB-468 breast                   =             1.87
 5               COP(=O)(CC(F)(F)C(F)(F)F)OC  MDA-MB-468 breast                   =             3.16
 6  Cc1c2cnccc2c(C)c2c1c1cc(C3OCCCO3)ccc1n2C  MDA-MB-468 breast                   =            0.928
 7  C=CC(=O)Nc1ccc(Nc2nccc(-c3ccc(N4CCCC4)c(C#N)c3)n2)cc1  MDA-MB-468 breast                   >               25
 8  CC(=O)C1=C(O)C=C2Oc3c(C(=O)/C=C/c4cc(C(F)(F)F)cc(C(F)(F)F)c4)c(O)c(C)c(O)c3[C@]2(C)C1=O  MDA-MB-468 breast                   =             4.46
 9  Cn1ccnc1C(=O)/C=C/c1ccc(NC(=O)c2ccc(F)cc2)cc1  MDA-MB-468 breast                   =             15.9
10  O=[N+]([O-])c1ccc(Nc2ccccc2-c2ccccc2)c2nonc12  MDA-MB-468 breast                   =             30.5
11  COc1ccc(-c2[nH]ncc2-c2cc3c(c(OC)c2)OCC(=O)N3)cc1  MDA-MB-468 breast                   =             28.4
12      C[n+]1c(/C=C\C=C\N2CCCCC2)sc2ccccc21  MDA-MB-468 breast                   =              3.8

###

System: MDA-MB-468 breast
Test: NCI tumour cell line growth inhibition, 48 h; in the data active = GI50 below about 0.43 µM; inactive = the rest
Outcome codes: y = active, n = inactive

>>> print(df.to_string())
                                        smi      target_system  class_name
0  Cc1c2cc[nH]c(=O)c2c(C)c2c1[nH]c1cc(OCCN3CCN(C)CC3)ccc12  MDA-MB-468 breast           y
1  Cn1cc(-c2nonc2-c2c[nH]c3ccccc23)c2ccccc21  MDA-MB-468 breast           y
2               COP(=O)(CC(F)(F)C(F)(F)F)OC  MDA-MB-468 breast           n
